target: T1, LTβR-Ig (UniProt P36941 31-227, limits assumed); test: thermal challenge assay, remaining binding to plate-coated LTβR-Ig read by DELFIA; unit taken from the x axis
T1 construct: extracellular domain; also called LTβR Ig receptor; recombinantly produced LTβR receptor; not shown: human Fc region
T1 sequence (P36941 31-227 limits assumed): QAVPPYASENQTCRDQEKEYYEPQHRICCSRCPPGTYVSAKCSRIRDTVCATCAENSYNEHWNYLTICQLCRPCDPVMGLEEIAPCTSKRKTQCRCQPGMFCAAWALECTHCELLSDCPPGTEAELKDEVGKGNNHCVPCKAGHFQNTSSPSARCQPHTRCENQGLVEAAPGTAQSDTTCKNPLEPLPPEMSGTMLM
Measure name: midpoint temperature of the thermal challenge curve (T50) (°C)
Hi! Could you send only the number? It should be in °C, unit omitted.

Field: example entries. Status: answers known.
[
  {
    "Binder": "BHA10 VH44/VL100 scFv (scFv, disulfide bond between VH44 Cys and VL100 Cys (Kabat), Expressed in E. coli; also called IEH006 (GS3 + SS); pIEH006) scFv, VH-(Gly4Ser)3-VL: QVQLVQSGAEVKKPGSSVKVSCKASGYTFTTYYLHWVRQAPGQCLEWMGWIYPGNVHAQYNEKFKGRVTITADKSTSTAYMELSSLRSEDTAVYYCARSWEGFPYWGQGTTVTVSSGGGGSGGGGSGGGGSDIQMTQSPSSLSASVGDRVTITCKASQNVGINVAWYQQKPGKAPKSLISSASYRYSGVPSRFSGSGSGTDFTLTISSLQPEDFATYFCQQYDTYPFTFGCGTKVEIK",
    "Result": 61.5
  },
  {
    "Binder": "IEH031 (GS4 + SS + VL S46L) (scFv, chain 1: engineered disulfide bond between Cys at pos 44 (VH Kabat 44) and Cys at pos 236 (VL Kabat 100), also called pIEH031; BHA10 scFv VH44-VL100 disulfide, (Gly4Ser)4 linker, VL S46L) scFv: QVQLVQSGAEVKKPGSSVKVSCKASGYTFTTYYLHWVRQAPGQCLEWMGWIYPGNVHAQYNEKFKGRVTITADKSTSTAYMELSSLRSEDTAVYYCARSWEGFPYWGQGTTVTVSSGGGGSGGGGSGGGGSGGGGSDIQMTQSPSSLSASVGDRVTITCKASQNVGINVAWYQQKPGKAPKLLISSASYRYSGVPSRFSGSGSGTDFTLTISSLQPEDFATYFCQQYDTYPFTFGCGTKVEIKDDDDKSFLEQKLISEEDLNSAVDHHHHHH",
    "Result": 72.3
  },
  {
    "Binder": "BHA10 VH44:VL100/(Gly4Ser)4 scFv (scFv, Cys at Kabat VH44 and VL100 form a disulfide; also called Wild-type, (G4S)*4 linker w/ VH44/VL100 disulfide; 009 (ss)) scFv: QVQLVQSGAEVKKPGSSVKVSCKASGYTFTTYYLHWVRQAPGQCLEWMGWIYPGNVHAQYNEKFKGRVTITADKSTSTAYMELSSLRSEDTAVYYCARSWEGFPYWGQGTTVTVSSGGGGSGGGGSGGGGSGGGGSDIQMTQSPSSLSASVGDRVTITCKASQNVGINVAWYQQKPGKAPKSLISSASYRYSGVPSRFSGSGSGTDFTLTISSLQPEDFATYFCQQYDTYPFTFGCGTKVEIK",
    "Result": 63.3
  }
]

The binder listed as BHA10 scFv VL-S46L, (G4S)4 linker (scFv, also called 072 VL-S46L; pIEH029) scFv: QVQLVQSGAEVKKPGSSVKVSCKASGYTFTTYYLHWVRQAPGQGLEWMGWIYPGNVHAQYNEKFKGRVTITADKSTSTAYMELSSLRSEDTAVYYCARSWEGFPYWGQGTTVTVSSGGGGSGGGGSGGGGSGGGGSDIQMTQSPSSLSASVGDRVTITCKASQNVGINVAWYQQKPGKAPKLLISSASYRYSGVPSRFSGSGSGTDFTLTISSLQPEDFATYFCQQYDTYPFTFGQGTKVEIKDDDDKSFLEQKLISEEDLNSAVDHHHHHH has a reported midpoint temperature of the thermal challenge curve (T50) of 60.3
